# TARGET_OR_SYSTEM: T1, Spirochaeta thermophila YeeE (Spirochaeta thermophila, UniProt G0GAP6 1-328)
# T1 construct: YeeE of Spirochaeta thermophila, residues 1-328, UniProt G0GAP6; Membrane protein, kept in 0.1% DDM; The His tag was removed with TEV(S219V) protease; also called StYeeE; TsuA; source: E. coli C41(DE3), purified from the membrane fraction in DDM (Ni-NTA, TEV cleavage, Superdex 200)
# T1 sequence (looked up): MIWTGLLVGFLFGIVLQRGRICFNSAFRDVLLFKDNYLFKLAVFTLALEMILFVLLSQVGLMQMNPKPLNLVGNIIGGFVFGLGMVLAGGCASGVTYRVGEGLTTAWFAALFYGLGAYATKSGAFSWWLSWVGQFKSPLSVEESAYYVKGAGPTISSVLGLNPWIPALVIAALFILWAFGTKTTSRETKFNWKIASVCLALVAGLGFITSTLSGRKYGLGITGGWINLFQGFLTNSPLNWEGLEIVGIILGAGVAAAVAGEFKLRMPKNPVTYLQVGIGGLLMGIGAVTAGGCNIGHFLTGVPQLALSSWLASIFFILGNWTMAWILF
# PROTOCOL_DETAILS: BLI; StYeeD-His6 (4.82 μM) loaded on a Ni-NTA biosensor, 11.05 μM StYeeE in solution; Octet N1, room temperature; 20 mM Tris-HCl pH 8.0, 300 mM NaCl, 0.1% DDM, 1 mM β-ME; 120 s association, 120 s dissociation; local fitting; 3 measurements. WT was also run with 300 mM Na2SO4 (binding similar) or 300 mM Na2S2O3 (binding significantly decreased)
# EXPERIMENTAL_CONDITIONS: both partners purified
Field: koff. Provide a value for each of the binders that follow.
Give bare numbers, in s⁻¹.

Give measured koff for every item shown.
1. StYeeD(E48A), His6-tagged (natural protein, Spirochaeta thermophila, UniProt G0GAP7 1-80, looked up, YeeD of Spirochaeta thermophila, residues 1-80, UniProt G0GAP7, with E48A; source: E. coli C41(DE3), purified (Ni-NTA, Superdex 200)) MANYQVSKEIDVRGEVCPIPDVEAKRAVQSANDGEIILVRIDYPLSKARIPETVKKLGSEVLEIEEAAPGEWNIYIKVKK
2. StYeeD(V39A), His6-tagged (natural protein, Spirochaeta thermophila, UniProt G0GAP7 1-80, looked up, YeeD of Spirochaeta thermophila, residues 1-80, UniProt G0GAP7, with V39A; source: E. coli C41(DE3), purified (Ni-NTA, Superdex 200)) MANYQVSKEIDVRGEVCPIPDVEAKRAVQSANDGEIILARIDYPLSKERIPETVKKLGSEVLEIEEAAPGEWNIYIKVKK
3. StYeeD(L45A), His6-tagged (natural protein, Spirochaeta thermophila, UniProt G0GAP7 1-80, looked up, YeeD of Spirochaeta thermophila, residues 1-80, UniProt G0GAP7, with L45A; source: E. coli C41(DE3), purified (Ni-NTA, Superdex 200)) MANYQVSKEIDVRGEVCPIPDVEAKRAVQSANDGEIILVRIDYPASKERIPETVKKLGSEVLEIEEAAPGEWNIYIKVKK
4. StYeeD(R49A), His6-tagged (natural protein, Spirochaeta thermophila, UniProt G0GAP7 1-80, looked up, YeeD of Spirochaeta thermophila, residues 1-80, UniProt G0GAP7, with R49A; source: E. coli C41(DE3), purified (Ni-NTA, Superdex 200)) MANYQVSKEIDVRGEVCPIPDVEAKRAVQSANDGEIILVRIDYPLSKEAIPETVKKLGSEVLEIEEAAPGEWNIYIKVKK
5. StYeeD(E15A), His6-tagged (natural protein, Spirochaeta thermophila, UniProt G0GAP7 1-80, looked up, YeeD of Spirochaeta thermophila, residues 1-80, UniProt G0GAP7, with E15A; source: E. coli C41(DE3), purified (Ni-NTA, Superdex 200)) MANYQVSKEIDVRGAVCPIPDVEAKRAVQSANDGEIILVRIDYPLSKERIPETVKKLGSEVLEIEEAAPGEWNIYIKVKK
6. StYeeD(K8A), His6-tagged (natural protein, Spirochaeta thermophila, UniProt G0GAP7 1-80, looked up, YeeD of Spirochaeta thermophila, residues 1-80, UniProt G0GAP7, with K8A; source: E. coli C41(DE3), purified (Ni-NTA, Superdex 200)) MANYQVSAEIDVRGEVCPIPDVEAKRAVQSANDGEIILVRIDYPLSKERIPETVKKLGSEVLEIEEAAPGEWNIYIKVKK
7. StYeeD(L38A), His6-tagged (natural protein, Spirochaeta thermophila, UniProt G0GAP7 1-80, looked up, YeeD of Spirochaeta thermophila, residues 1-80, UniProt G0GAP7, with L38A; source: E. coli C41(DE3), purified (Ni-NTA, Superdex 200)) MANYQVSKEIDVRGEVCPIPDVEAKRAVQSANDGEIIAVRIDYPLSKERIPETVKKLGSEVLEIEEAAPGEWNIYIKVKK

[0.14, 0.032, 0.035, 0.12, 0.071, 0.037, 0.032]

Give measured koff for every item shown.
1. Spirochaeta thermophila YeeD (WT), His6-tagged (natural protein, UniProt G0GAP7 1-80, looked up, YeeD of Spirochaeta thermophila, residues 1-80, UniProt G0GAP7; 11.3 kDa with the tag; As purified, C17 is partly modified (mass spectrometry: -SH, -S-O2-/-S-S-, -S-SO3-); also called StYeeD; StYeeD(WT); source: E. coli C41(DE3), purified (Ni-NTA, Superdex 200)) MANYQVSKEIDVRGEVCPIPDVEAKRAVQSANDGEIILVRIDYPLSKERIPETVKKLGSEVLEIEEAAPGEWNIYIKVKK
2. StYeeD(E9A), His6-tagged (natural protein, Spirochaeta thermophila, UniProt G0GAP7 1-80, looked up, YeeD of Spirochaeta thermophila, residues 1-80, UniProt G0GAP7, with E9A; source: E. coli C41(DE3), purified (Ni-NTA, Superdex 200)) MANYQVSKAIDVRGEVCPIPDVEAKRAVQSANDGEIILVRIDYPLSKERIPETVKKLGSEVLEIEEAAPGEWNIYIKVKK
3. StYeeD(Y43A), His6-tagged (natural protein, Spirochaeta thermophila, UniProt G0GAP7 1-80, looked up, YeeD of Spirochaeta thermophila, residues 1-80, UniProt G0GAP7, with Y43A; source: E. coli C41(DE3), purified (Ni-NTA, Superdex 200)) MANYQVSKEIDVRGEVCPIPDVEAKRAVQSANDGEIILVRIDAPLSKERIPETVKKLGSEVLEIEEAAPGEWNIYIKVKK
4. StYeeD(E63A), His6-tagged (natural protein, Spirochaeta thermophila, UniProt G0GAP7 1-80, looked up, YeeD of Spirochaeta thermophila, residues 1-80, UniProt G0GAP7, with E63A; source: E. coli C41(DE3), purified (Ni-NTA, Superdex 200)) MANYQVSKEIDVRGEVCPIPDVEAKRAVQSANDGEIILVRIDYPLSKERIPETVKKLGSEVLAIEEAAPGEWNIYIKVKK
5. StYeeD(V16A), His6-tagged (natural protein, Spirochaeta thermophila, UniProt G0GAP7 1-80, looked up, YeeD of Spirochaeta thermophila, residues 1-80, UniProt G0GAP7, with V16A; source: E. coli C41(DE3), purified (Ni-NTA, Superdex 200)) MANYQVSKEIDVRGEACPIPDVEAKRAVQSANDGEIILVRIDYPLSKERIPETVKKLGSEVLEIEEAAPGEWNIYIKVKK

[0.027, 0.027, 0.16, 0.03, 0.093]

All figures here come from paper PMC11073785.
